Recorded SI (CC50 L02/IC50 A549) by entry
# Test system: A549 cells
# ASSAY_DETAILS: In vitro anti-proliferative SRB assay, A549
# Format: cell-based, human
# STUDY_CONDITIONS: selectivity index, L02 vs A549
# Experimental: HepG2 and MCF7 cells were grown in the Eagle’s minimum essential medium with Earle’s balanced salts (MEM-EBSS) medium, HeLa, A549 and L02 cells were grown in Dulbecco’s Modified Eagle Media (DMEM), SW1990 cells were grown in RPMI-1640 medium, and HMLE cell were grown in DMEM/F-12 medium. […] Cells were seeded into 96-well plates (4000 cells/well) and incubated at 37 °C in a humidified 5% CO2 atmosphere. […] Cell viability was evaluated using the sulforhodamine B (SRB) assay as previous described.

COMPOUND	SI (CC50 L02/IC50 A549)
COc1cccc(OC)c1/C=C/C(=O)c1ccccc1O [b24]	2.8

// sample COc1cccc(OC)c1/C=C/C(=O)c1cccc(C)c1 [b3] , its SI (CC50 L02/IC50 A549) was 1.6

// sample COc1cccc(OC)c1/C=C/C(=O)c1ccc(O)cc1O [b27] , its SI (CC50 L02/IC50 A549) was 2.1

// sample COc1cccc(OC)c1/C=C/C(=O)c1ccc2c(c1)OCO2 [b20] , its SI (CC50 L02/IC50 A549) was 3.1

// sample COc1cc(C(=O)/C=C/c2c(OC)cccc2OC)ccc1O [b29] , its SI (CC50 L02/IC50 A549) was >66.7

// sample COc1cccc(OC)c1/C=C/C(=O)c1ccc(C)cc1 [b4] , its SI (CC50 L02/IC50 A549) was 2.7

// sample COc1cccc(OC)c1/C=C/C(=O)c1ccc2c(c1)CCO2 [b21] , its SI (CC50 L02/IC50 A549) was 2.6

// sample COc1ccccc1C(=O)/C=C/c1c(OC)cccc1OC [b6] , its SI (CC50 L02/IC50 A549) was 1.4

// sample COc1cccc(OC)c1/C=C/C(=O)c1cccc(F)c1 [b32] , its SI (CC50 L02/IC50 A549) was 2.7

// sample COc1ccc(C(=O)/C=C/c2c(OC)cccc2OC)cc1OC [b19] , its SI (CC50 L02/IC50 A549) was 2.9

---

MEASURED_METRIC: melting point

MOLECULE	melting point
COc1cccc(OC)c1/C=C/C(=O)c1ccccc1C [b2]	79.8 to 81.4 °C
COc1cccc(OC)c1/C=C/C(=O)c1ccc(-c2ccccc2)cc1 [b22]	121.7 to 123.5 °C

// sample COc1cccc(OC)c1/C=C/C(=O)c1ccc(O)cc1O [b27] , its melting point was 218.7 to 220.2 °C

// sample COc1cccc(OC)c1/C=C/C(=O)c1ccc(F)cc1 [b33] , its melting point was 108.2 to 109.6 °C

// sample CCOc1cccc(C(=O)/C=C/c2c(OC)cccc2OC)c1 [b9] , its melting point was 63.1 to 64.8 °C

// sample COc1cccc(OC)c1/C=C/C(=O)c1cccc([N+](=O)[O-])c1 [b39] , its melting point was 172.3 to 173.7 °C

// sample COc1cccc(OC)c1/C=C/C(=O)c1ccccc1OCc1ccccc1 [b11] , its melting point was 94.6 to 97.9 °C

// sample COc1ccc(C(=O)/C=C/c2c(OC)cccc2OC)cc1 [a14] , its melting point was 123.7 to 125.7 °C
